Assay: Protein binding in human plasma
Format: ADME, cell-free
Conditions: read-out: PPB (converted)
Some molecules, each annotated with its measured fraction unbound.

Below, each entry is followed by its recorded fraction unbound result.
O=S(=O)(Nc1ncc(Cl)nc1OCc1cccnc1)c1cccc(Cl)c1Cl ... < 0.001
COc1nc(Br)cnc1NS(=O)(=O)c1cccc(Cl)c1Cl ... < 0.001
COc1ncc(C)nc1NS(=O)(=O)c1cccc(Cl)c1Cl ... < 0.002

Consider COc1nc(Cl)cnc1NS(=O)(=O)c1cccc(Cl)c1Cl . Its measured fraction unbound is < 0.001
